- TARGET_OF_ASSAY: T1, cynomolgus CD200R1 with dual His-tags (cynomolgus, UniProt G7NZT0 25-266)
- T1 construct: Captured on the SPR chip by an anti-histidine antibody; also called CCD200R1-his; cCD200R1-his; not shown: dual His-tags
- T1 sequence: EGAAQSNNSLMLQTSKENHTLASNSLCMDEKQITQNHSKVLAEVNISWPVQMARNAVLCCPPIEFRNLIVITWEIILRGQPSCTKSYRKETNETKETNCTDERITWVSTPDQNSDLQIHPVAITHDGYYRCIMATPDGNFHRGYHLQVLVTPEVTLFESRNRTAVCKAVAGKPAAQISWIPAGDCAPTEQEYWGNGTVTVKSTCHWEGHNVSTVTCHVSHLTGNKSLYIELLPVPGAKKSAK
- PROTOCOL_NOTES: SPR (Biacore CM5), His-tagged antigen captured by anti-histidine antibody, antibody as analyte, 1:1 Langmuir fit
METRIC_NAME: pKd
Kindly note that pKd refers to -log10 of the concentration in mol/L and answer with the value alone.

Task: Entry under review: P001009v2 (antibody, V domains shown, P001009 with LC S52K and D93R (Kabat); also called P019001v2) VH: EVQLLESGGGLVQPGGSLRLSCAASGFTFSSYDMSWVRQAPGKGLEWVSWISHGGGSIYYADSVKGRFTISRDNSKNTLYLQMNSLRAEDTAVYYCARDAPAYSAPLFDYWGQGTLVTVSS VL: QSVLTQPPSASGTPGQRVTISCSGSSSNIGNNAVNWYQQLPGTAPKLLIYYDKNRPSGVPDRFSGSKSGTSASLAISGLRSEDEADYYCAAWDRSLSGYVFGGGTKLTVL . Reported pKd?
Output: 10.54

Data credit: patent US20260263521A1
